PROTOCOL DESCRIPTION: Fasting single dose PK study in dogs: plasma ondansetron after intravenous bolus of marketed ondansetron injection (reference)
Type: in vivo
REPORTED CONDITIONS: G2, IV bolus 24 mg/dog, fasted male Beagle dogs

| COMPOUND | half-life (h) |
| --- | --- |
| Cc1nccn1CC1CCc2c(c3ccccc3n2C)C1=O (stereo not shown) | 1.28 |

###

PROTOCOL DESCRIPTION: Fasting single dose PK study in dogs: plasma ondansetron after intravenous bolus of marketed ondansetron injection (reference)
Format: in vivo
REPORTED CONDITIONS: G2, IV bolus 24 mg/dog, fasted male Beagle dogs

| MOLECULE | AUC(0-inf) |
| --- | --- |
| Cc1nccn1CC1CCc2c(c3ccccc3n2C)C1=O (stereo not shown) | 716 ng·h/mL |
